Listed here: items and their measured IC50.
SUBJECT_OF_TEST: pSTAT6 (pY641-STAT6) (Homo sapiens)
Sequence (P42226 1-847): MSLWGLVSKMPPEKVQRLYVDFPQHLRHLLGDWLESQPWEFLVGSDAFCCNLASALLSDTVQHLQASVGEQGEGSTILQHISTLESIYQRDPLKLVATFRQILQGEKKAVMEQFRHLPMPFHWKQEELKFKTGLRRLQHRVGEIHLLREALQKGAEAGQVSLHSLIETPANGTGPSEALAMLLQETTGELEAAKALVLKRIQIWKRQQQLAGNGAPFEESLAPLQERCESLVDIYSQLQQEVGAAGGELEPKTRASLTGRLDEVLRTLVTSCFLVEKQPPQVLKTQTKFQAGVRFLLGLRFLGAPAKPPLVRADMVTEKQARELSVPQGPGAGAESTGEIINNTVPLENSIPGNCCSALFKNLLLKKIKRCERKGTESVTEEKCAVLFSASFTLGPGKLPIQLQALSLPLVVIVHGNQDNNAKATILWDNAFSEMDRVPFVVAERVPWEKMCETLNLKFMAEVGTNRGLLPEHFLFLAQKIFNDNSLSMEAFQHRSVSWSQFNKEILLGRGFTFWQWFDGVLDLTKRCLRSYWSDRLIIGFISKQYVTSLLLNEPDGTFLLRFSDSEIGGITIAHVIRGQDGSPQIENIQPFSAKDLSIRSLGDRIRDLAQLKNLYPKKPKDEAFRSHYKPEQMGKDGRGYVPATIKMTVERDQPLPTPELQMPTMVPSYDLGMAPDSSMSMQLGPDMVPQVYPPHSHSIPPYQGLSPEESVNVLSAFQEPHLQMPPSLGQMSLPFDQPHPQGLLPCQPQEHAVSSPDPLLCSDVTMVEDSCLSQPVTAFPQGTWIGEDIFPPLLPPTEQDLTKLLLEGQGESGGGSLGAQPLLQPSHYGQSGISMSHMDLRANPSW
METHOD_SUMMARY: MSD-pSTAT-PBMC Assay (pSTAT6, IL-4 stimulated)
ASSAY_CONTEXT: compound 3 hrs, then 1 ng/mL IL-4 for 10 min

Solved entries:
molecule=CC(C)(C)C(=O)OCOP(=O)(OCOC(=O)C(C)(C)C)C(F)(F)c1ccc2sc(C(=O)N[C@H]3C[C@@H]4C[C@@H]4C[C@H]4CC[C@@H](C(=O)N5CC(C6CCOCC6)C5)N4C3=O)cc2c1 test_result="0.1 to 1 µM"
molecule=CC(C)(C)C(=O)OCOP(=O)(OCOC(=O)C(C)(C)C)C(F)(F)c1ccc2sc(C(=O)N[C@H]3C[C@@H]4C[C@@H]4C[C@H]4CC[C@@H](C(=O)N5CC(c6ccccn6)C5)N4C3=O)cc2c1 test_result="0.1 to 1 µM"
molecule=CC(C)OC(=O)OCOP(=O)(Cc1ccc2sc(C(=O)N[C@H]3C[C@@H]4C[C@@H]4C[C@H]4CC[C@@H](C(=O)N5CC(C(=O)N6CCOCC6)C5)N4C3=O)cc2c1)OCOC(=O)OC(C)C test_result="> 3 µM"

Data point: CC(=O)N1C[C@H](NC(=O)[C@@H]2CC[C@@H]3C[C@H]4C[C@H]4C[C@H](NC(=O)c4cc5cc(C(F)(F)P(=O)(OCOC(=O)C(C)(C)C)OCOC(=O)C(C)(C)C)ccc5s4)C(=O)N32)[C@@H](O)C1 ; IC50 = 1 to 3 µM

Data point: CC(C)(C)C(=O)OCOP(=O)(OCOC(=O)C(C)(C)C)C(F)(F)c1ccc2sc(C(=O)N[C@H]3C[C@@H]4C[C@@H]4C[C@H]4CC[C@@H](C(=O)N5CCN(C(=O)c6cn[nH]c6)CC5)N4C3=O)cc2c1 ; IC50 = > 3 µM
